Molecular target: dopamine D-2 receptor (Rattus norvegicus)
Construct: from tissue; host or cells: limbic brain tissue, homogenate
Test: Affinity for the dopamine D-2 receptor, 3H-spiroperidol binding in homogenized limbic brain tissue (D2 Spiper)
Conditions: 3H-spiroperidol, homogenized limbic brain tissue; read-out: IC50 (nM) D2 Spiper
Binarize IC50 at 200 nM; below is Condition met, at or above is Condition not met.

Some solved entries appear below for comparison.
1) Cc1ccc(CNCCOc2cccc3[nH]c(C(F)(F)F)nc23)cc1 :: Condition met
2) FC(F)(F)c1ccc(CNCCOc2cccc3[nH]c(C(F)(F)F)nc23)cc1 :: Condition met
3) FC(F)(F)c1nc2c(OCCCNCc3ccccc3)cccc2[nH]1 :: Condition not met
4) FC(F)(F)c1nc2c(OCCNCc3cccc4ccccc34)cccc2[nH]1 :: Condition met
5) FC(F)(F)c1nc2c(OCCNCc3cccs3)cccc2[nH]1 :: Condition met

Please check: IC50 for `Fc1ccc(CNCCOc2cccc3[nH]c(C(F)(F)F)nc23)cc1` , strictly under 200 nM or not?
Condition met

Please check: IC50 for `FC(F)(F)c1nc2c(OCCNCc3ccccc3)cc(Cl)cc2[nH]1` , strictly under 200 nM or not?
Condition met

Please check: IC50 for `Cc1nc2c(OCCNCc3ccccc3)cccc2[nH]1` , strictly under 200 nM or not?
Condition not met

Please check: IC50 for `Cc1ccc(CNCCOc2cccc3[nH]c(Cc4ccccc4)nc23)cc1` , strictly under 200 nM or not?
Condition not met

====

Target: dopamine D-2 receptor (Rattus norvegicus, UniProt P61169)
Construct: from tissue; host or cells: limbic brain tissue, homogenate
Sequence (P61169 whole entry): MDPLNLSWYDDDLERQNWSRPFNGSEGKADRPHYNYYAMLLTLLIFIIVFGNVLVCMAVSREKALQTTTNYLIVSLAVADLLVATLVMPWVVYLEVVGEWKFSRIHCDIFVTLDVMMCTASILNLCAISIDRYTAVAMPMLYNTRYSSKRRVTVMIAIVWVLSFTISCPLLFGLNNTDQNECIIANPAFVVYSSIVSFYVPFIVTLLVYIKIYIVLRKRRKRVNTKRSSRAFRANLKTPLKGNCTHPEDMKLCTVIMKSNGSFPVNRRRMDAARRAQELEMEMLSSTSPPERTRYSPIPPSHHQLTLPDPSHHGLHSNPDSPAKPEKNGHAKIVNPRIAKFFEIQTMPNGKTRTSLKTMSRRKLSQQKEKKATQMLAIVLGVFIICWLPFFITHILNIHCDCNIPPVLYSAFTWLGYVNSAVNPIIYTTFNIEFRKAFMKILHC
Experiment: Affinity for the dopamine D-2 receptor, 3H-spiroperidol binding in homogenized limbic brain tissue (D2 Spiper)
Details: 3H-spiroperidol, homogenized limbic brain tissue; read-out: IC50 (nM) D2 Spiper
quantity: IC50 (nM)
Enter your answer as a number in nM; do not include the unit.

Please review the entries below; each comes with its answer.
1) Cc1ccc(CNCCOc2cccc3[nH]c(C(F)(F)C(F)(F)F)nc23)cc1 :: 66.5
2) FC(F)(F)C(F)(F)c1nc2c(OCCNCc3ccccc3)cccc2[nH]1 :: 41.9
3) FC(F)(F)c1nc2c(OCCNCc3ccc(Cl)cc3)cc(Cl)cc2[nH]1 :: 395

Provide one value: measured IC50 of `FC(F)(F)c1nc2c(OCCNCc3ccccc3)cccc2[nH]1`
23.7

Provide one value: measured IC50 of `FC(F)(F)c1nc2c(OCCN3CCc4ccccc4C3)cccc2[nH]1`
314

====

Biological target: dopamine D-2 receptor (Rattus norvegicus, UniProt P61169)
Construct: from tissue; host or cells: limbic brain tissue, homogenate
Experiment: Affinity for the dopamine D-2 receptor, 3H-spiroperidol binding in homogenized limbic brain tissue (D2 Spiper)
Details: IC50 D2 Spiper / IC50 D2 Quin. (LowAg/HighAg, predicts intrinsic activity)
List of Ratio values.
Would you mind answering with just the numeric figure?

1) FC(F)(F)c1ccc(CNCCOc2cccc3[nH]c(C(F)(F)F)nc23)cc1 :: 75.0
2) Cc1ccc(CNCCOc2cccc3[nH]c(Cc4ccccc4)nc23)cc1 :: 39.4
3) FC(F)(F)c1nc2c(OCCCNCc3ccccc3)cccc2[nH]1 :: 16.8
4) Cc1ccc(CNCCOc2cccc3[nH]c(C(F)(F)C(F)(F)C(F)(F)F)nc23)cc1 :: 23.0
5) FC(F)(F)c1nc2c(OCCNCc3cccs3)cccc2[nH]1 :: 36.3
6) Cc1ccc(CNCCOc2cccc3[nH]c(C(F)(F)C(F)(F)F)nc23)cc1 :: 46.2
7) FC(F)(F)c1nc2c(OCCN3CCc4ccccc4C3)cccc2[nH]1 :: 39.4
8) Fc1ccc(CNCCOc2cccc3[nH]c(C(F)(F)F)nc23)cc1 :: 66.2
9) FC(F)(F)C(F)(F)c1nc2c(OCCNCc3ccccc3)cccc2[nH]1 :: 29.7
10) Cc1nc2c(OCCNCc3ccccc3)cccc2[nH]1 :: 38.3

Specify Ratio for `FC(F)(F)c1nc2c(OCCNCc3ccccc3)cc(Cl)cc2[nH]1` , system dopamine D-2 receptor (Rattus norvegicus, UniProt P61169).
106

Specify Ratio for `Cc1ccc(CNCCOc2cccc3[nH]c(C(F)(F)F)nc23)cc1` , system dopamine D-2 receptor (Rattus norvegicus, UniProt P61169).
40.4

Specify Ratio for `FC(F)(F)c1nc2c(OCCNCc3ccc(Cl)cc3)cc(Cl)cc2[nH]1` , system dopamine D-2 receptor (Rattus norvegicus, UniProt P61169).
50.8

Specify Ratio for `FC(F)(F)c1nc2c(OCCNCc3ccccc3)cccc2[nH]1` , system dopamine D-2 receptor (Rattus norvegicus, UniProt P61169).
65.8

Specify Ratio for `FC(F)(F)c1nc2c(OCCNCc3cccc4ccccc34)cccc2[nH]1` , system dopamine D-2 receptor (Rattus norvegicus, UniProt P61169).
94.8
